# target-of-assay: OCT1*2 (Met420del) (Homo sapiens, UniProt O15245, DEL420-420/L160F)
# Sequence (O15245 with tags, fused parts or gaps L160F/DEL420-420): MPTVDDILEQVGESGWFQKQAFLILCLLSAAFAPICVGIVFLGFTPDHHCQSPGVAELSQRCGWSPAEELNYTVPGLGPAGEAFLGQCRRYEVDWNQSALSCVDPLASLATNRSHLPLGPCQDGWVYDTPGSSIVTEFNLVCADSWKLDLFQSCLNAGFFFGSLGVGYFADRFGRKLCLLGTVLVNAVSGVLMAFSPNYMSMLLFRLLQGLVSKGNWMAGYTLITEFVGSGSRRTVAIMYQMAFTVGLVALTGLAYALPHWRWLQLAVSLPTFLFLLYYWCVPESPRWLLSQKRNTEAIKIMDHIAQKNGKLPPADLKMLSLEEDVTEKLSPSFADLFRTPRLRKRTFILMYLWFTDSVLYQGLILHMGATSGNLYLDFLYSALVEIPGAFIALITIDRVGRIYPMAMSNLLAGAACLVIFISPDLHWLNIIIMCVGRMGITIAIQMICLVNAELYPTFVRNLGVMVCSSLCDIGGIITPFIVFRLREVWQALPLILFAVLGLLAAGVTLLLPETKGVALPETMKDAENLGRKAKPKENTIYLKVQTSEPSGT
# measurement-notes: Inhibition by ranitidine of OCT1-mediated substrate uptake, OCT1*2 allele, HEK293 cells
# Type: cell-based
# Design: expressed in transfected cells; host or cells: HEK293 T-REx (Flp-In)
# assay-setup: substrate 1 μM ASP+, OCT1*2, 2 min, HEK293
quantity: pIC50
Please keep in mind that pIC50 is minus log10 of the molar concentration; only the number is needed.

Exercise: So what's the measured pIC50 for this one? CNC(=C[N+](=O)[O-])NCCSCc1ccc(CN(C)C)o1
Key: 3.81
